Source listed as PubChem BioAssay (NCATS).

- TARGET_SYSTEM: Cytochrome P450 1A2 (Homo sapiens)
- ASSAY: p450-cyp1a2 (AID 410)
- PROTOCOL_CONDITIONS: recombinant CYP1A2, luciferin-ME demethylation, luminescence; series mostly up to 57 µM
Records with an inconclusive call do not appear. Activity calls are given as the source filed them. Calls come from the whole dose curve.
Hello, when you answer, please use one of the following outcomes: YES (active), NO (inactive)

# example entries with known answers
[[record]]
substance_smiles = "CN[C@@H]1[C@H](O[C@@H]2O[C@H](CO)[C@@H](N)[C@H](O)[C@@H]2O)O[C@H]2C[C@@H](N)[C@@H](O[C@H]3[C@@H](O)[C@H](O)[C@H](N)C[C@@H]3N)O[C@H]2[C@H]1O"
label_value = "NO"

[[record]]
substance_smiles = "O=c1c(-c2ccccc2)nc2cnc(Oc3cccc(Cl)c3)nc2n1C1CC1"
label_value = "YES"

[[record]]
substance_smiles = "COCCNc1ccnc(-c2c(C)noc2C)n1"
label_value = "YES"


# input for lookup
How was O=S(=O)(c1ccccc1)N1CCC2(CCN(c3ncccn3)CC2)CC1 classified in this test?
NO

----------
- Test system: CP185
- ASSAY: qHTS profiling for inhibitors of Plasmodium falciparum proliferation (AID 504749); note: nearly all actives have a fitted effect of over 60% in size
- PROTOCOL_CONDITIONS: P. falciparum in erythrocytes, SYBR Green DNA, 72 h; series mostly up to 12.8 µM
Records with an inconclusive call do not appear. Calls of active or inactive are those of the source. The call rests on the fitted dose curve; in most records, active means well fitted inhibition curve with a large enough effect; inconclusive means small, poorly fitted or top-dose-only effect; inactive means flat fitted curve, though single readings scatter.
The reply should be one of these categories: 1 (yes) (active), 0 (no) (inactive)

Below, 6 compounds whose answers are already recorded.
[[record]]
compound = "NC(N)=NC[C@@H]1COC2(CCCCC2)O1"
label_value = "0 (no)"

[[record]]
compound = "CCCN[C@@H](C)C(=O)Nc1ccccc1C"
label_value = "0 (no)"

[[record]]
compound = "CC1(C)O[C@@H]2C[C@H]3[C@H]4C[C@H](F)C5=CC(=O)C=C[C@@]5(C)[C@@H]4[C@H](O)C[C@]3(C)[C@]2(C(=O)CO)O1"
label_value = "0 (no)"

[[record]]
compound = "CO[C@]1(NC(=O)CSCC#N)C(=O)N2C(C(=O)O)=C(CSc3nnnn3C)CS[C@H]21"
label_value = "0 (no)"

[[record]]
compound = "N[C@@H](CO)C(=O)NNCc1ccc(O)c(O)c1O"
label_value = "0 (no)"

[[record]]
compound = "CC[C@]1(C)CC(=O)NC1=O"
label_value = "0 (no)"


What outcome does the record of this test show for COc1c(O)cc2c(c1O)[C@@H]1O[C@@H](CO)[C@@H](O)[C@@H](O)[C@@H]1OC2=O ?
0 (no)

For CCN1C(=O)N[C@@H](c2ccccc2)C1=O , which call appears in the assay record?
0 (no)

Please share the test call associated with O=c1[nH]c(=O)n([C@@H]2C[C@H](O)[C@H](CO)O2)cc1I .
0 (no)

Please let me know the test result on file for C[C@@H]1COc2c(N3CCN(C)CC3)c(F)cc3c(=O)c(C(=O)O)cn1c23 .
0 (no)

# lookup: test call for CO/N=C(/C(=O)NC1C(=O)N2C(C(=O)O)=C(CSc3nc(=O)c(O)nn3C)CSC12)c1csc(N)n1 (stereo not given)
0 (no)

Status in this test for CCN(CC)CCC[C@H](C)Nc1ccnc2cc(Cl)ccc12 ?
1 (yes)
